subjectOfTest: T1, HMGB1 A box (termed HMGB1) (UniProt P09429 9-78)
T1 sequence: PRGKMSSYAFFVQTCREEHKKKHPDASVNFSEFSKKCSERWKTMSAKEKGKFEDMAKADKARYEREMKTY
protocolText: ITC; K+; K+-containing buffer; 20 or 200 mM K+ in Fig S9 titrations (10 uM HMGB1); full buffer, pH and temperature of binding assays not in material (phase-separation assays: 10 mM HEPES pH 7.4, 20 mM K+, 10% PEG8K)
assaySetup: protein: recombinant; intramolecular parallel G4, K+
observationType: Kd (µM)
Quick reminder: number only, in µM, skip the unit.

Form field: reported Kd of AGGGCGGTGTGGGAAGAGGGAA (structured_DNA) [22R (GQKRAS)]
7.04
